assay: Inhibition of alpha-glucosidase (unknown origin) using pNPG as substrate preincubated for 20 mins followed by substrate addition and measured after 1 hr by absorbance based analysis; parameters: species or system Homo sapiens
pIC50: −log10 of the molar value.
Recorded metric: pIC50

C[C@H]1O[C@H](O[C@H]2[C@H](O)[C@@H](O)[C@@H](O[C@H]3[C@H](O)[C@@H](O)C(O)O[C@@H]3CO)O[C@@H]2CO)[C@H](O)[C@@H](O)[C@@H]1N[C@H]1C=C(CO)[C@@H](O)[C@H](O)[C@H]1O (some centres not stated)    4.12
Cc1ccc(S(=O)(=O)n2cc(-c3oc4cc(Br)cc(Br)c4c(=O)c3O)c3ccccc32)cc1    4.15

###

experiment: Mixed-type inhibition of alpha-glucosidase (unknown origin) using p-nitropheny-alpha-D-glucopyranoside as substrate assessed as inhibition constant by measuring secondary plot of 1/V versus drug concentration preincubated for 5 mins followed by substrate addition and measured after 10 mins by absorbance based microplate reader analysis; design: species or system Homo sapiens
pKi: −log10 of the molar value.
Recorded metric: pKi

O=C1CNC(=S)N1C(=O)c1cc([N+](=O)[O-])cc([N+](=O)[O-])c1    4.47

###

test: Mixed-type inhibition of alpha-glucosidase (unknown origin) using p-nitropheny-alpha-D-glucopyranoside as substrate assessed as inhibition constant by measuring intercept versus drug/substrate concentration preincubated for 5 mins followed by substrate addition and measured after 10 mins by absorbance based microplate reader analysis; parameters: species or system Homo sapiens
Recorded metric: Ki (µM)

O=C1CNC(=S)N1C(=O)c1cc([N+](=O)[O-])cc([N+](=O)[O-])c1    156

###

target: Alpha-glucosidase (Saccharomyces cerevisiae S288c, UniProt P53341+P38158+P07265); experiment: Inhibition of Saccharomyces cerevisiae alpha-glucosidase using p-nitrophenyl-alpha-D-glucopyranoside as substrate preincubated for 15 mins followed by substrate addition and measured after 30 mins by spectrophotometric analysis; type: protein assay
Consider the cut-off 3 µM. If the recorded IC50 is strictly smaller, the label is Condition met; if not, the label is Condition not met.

O=C1Nc2ccccc2C1(c1cn(Cc2ccccc2F)c2ccccc12)c1cn(Cc2ccccc2F)c2ccccc12    Condition not met
Cc1ccc(-c2cc(-c3ccc(Br)cc3)nc(SCc3ccc(Cl)cc3)n2)cc1    Condition not met
O=C(COc1ccc2ccc(=O)oc2c1)N/N=C1\C(=O)N(Cc2ccccc2F)c2ccc(Cl)cc21    Condition met
COc1ccc(-c2csc(NC(=O)CSc3nnc(-c4ccc(Br)cc4)c(-c4ccc(Br)cc4)n3)n2)cc1    Condition met
CC(C)(C)c1ccc(Cn2cc(CCS3=Nc4cc(Cl)ccc4C3)nn2)cc1 (stereo unspecified)    Condition not met
CC(=O)CC(c1ccc(Br)cc1)C(C(=O)Nc1ccccn1)C(=O)Nc1ccccn1 (stereo unspecified)    Condition not met

###

assay: Inhibition of alpha-glucosidase (unknown origin) using 4-nitrophenyl-[…]-D-glucopyranoside as substrate preincubated for 20 mins followed by substrate addition and measured after 1 hr by absorbance based analysis; parameters: species or system Homo sapiens
pIC50: −log10 of the molar value.
Recorded metric: pIC50

Oc1ccccc1-c1cc(-c2ccc(C(F)(F)F)cc2)n(-c2ccccc2)n1    3.94

###

test: Inhibition of alpha-glucosidase (unknown origin) using p-nitrophenyl-alpha-D-glucopyranoside as substrate preincubated for 15 mins followed by substrate addition and measured after 15 mins by absorbance based microplate reader analysis; set-up: species or system Homo sapiens
pIC50: −log10 of the molar value.
Recorded metric: pIC50

C[C@H]1O[C@H](O[C@H]2[C@H](O)[C@@H](O)[C@@H](O[C@H]3[C@H](O)[C@@H](O)C(O)O[C@@H]3CO)O[C@@H]2CO)[C@H](O)[C@@H](O)[C@@H]1N[C@H]1C=C(CO)[C@@H](O)[C@H](O)[C@H]1O (some centres not stated) [ACARBOSE]    2.11
COc1cc2c(=O)c(-c3ccccc3)coc2cc1O/C(=C\N(C)C)C(=O)c1ccc(Cl)cc1    3.05
